experiment: Stability and biodistribution of prodrugs in vivo (HPLC of plasma and tissues)
Parameters: species or system mice (CD-1 nude; BALB/C where indicated)
experimentalSetup: mouse, small intestine, 50 mg/kg, SMALL INTESTINE, 30 min, 50 mg/kg i.p. or i.v., CD-1 nude mice; read-out: stability: percentage of material observed as intact prodrug, small intestine
reportedEndpoint: remaining at 0.5 h (%)
Respond with the bare value in %.

Report measured remaining at 0.5 h; entry is CN(Cc1cnc2nc(N)nc(N)c2n1)c1ccc(C(=O)N[C@@H](CCC(=O)O)C(=O)N[C@@H](Cc2cccc(C3CCCC3)c2)C(=O)O)cc1 [Prodrug 9]
97

Report measured remaining at 0.5 h; entry is Cc1nc2ccc3ccc(CNc4ccc(C(=O)N[C@@H](CCC(=O)O)C(=O)N[C@@H](Cc5ccccc5I)C(=O)O)c(F)c4)cc3c2c(=O)[nH]1 [Prodrug 5]
40

Report measured remaining at 0.5 h; entry is Cc1nc2ccc3ccc(CNc4ccc(C(=O)N[C@@H](CCC(=O)O)C(=O)N[C@@H](CCC(=O)O)C(=O)O)c(F)c4)cc3c2c(=O)[nH]1 [Prodrug 1]
83

Report measured remaining at 0.5 h; entry is CN(Cc1cnc2nc(N)nc(N)c2n1)c1ccc(C(=O)N[C@@H](CCC(=O)O)C(=O)N[C@@H](Cc2ccc(O)c(C3CCCC3)c2)C(=O)O)cc1 [Prodrug 13]
100

###

experiment: Stability and biodistribution of prodrugs in vivo (HPLC of plasma and tissues)
Set-up: species or system mice (CD-1 nude; BALB/C where indicated)
experimentalSetup: PLASMA, 120 min, 50 mg/kg i.p. or i.v., CD-1 nude mice; listed as 552W92, 50 mg/kg, 120 min; read-out: concentration of prodrug in plasma
reportedEndpoint: concentration (nM)
Respond with the bare value in nM.

Report measured concentration; entry is Cc1nc2ccc3ccc(CNc4ccc(C(=O)N[C@@H](CCC(=O)O)C(=O)N[C@@H](Cc5cccc6ccccc56)C(=O)O)c(F)c4)cc3c2c(=O)[nH]1 [Prodrug 3]
2800

###

testedSystem: wild type human carboxypeptidase A1 (Homo sapiens, UniProt P15085)
Sequence (P15085 111-419): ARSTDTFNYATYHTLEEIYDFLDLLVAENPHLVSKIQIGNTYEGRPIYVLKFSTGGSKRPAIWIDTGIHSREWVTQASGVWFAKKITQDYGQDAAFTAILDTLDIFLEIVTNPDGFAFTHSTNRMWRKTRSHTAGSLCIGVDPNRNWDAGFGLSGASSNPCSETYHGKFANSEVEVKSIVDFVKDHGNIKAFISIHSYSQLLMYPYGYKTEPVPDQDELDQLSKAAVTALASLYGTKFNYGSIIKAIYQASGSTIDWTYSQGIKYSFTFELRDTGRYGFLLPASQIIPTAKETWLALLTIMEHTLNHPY
experiment: Enzyme kinetics of prodrugs with wild type human carboxypeptidase A1 (coupled assay)
Type: biochemical
reportedEndpoint: kcat/Km for human CPA1 compared with that of the L-phenylalanine prodrug (in words)

Use the examples below as a reference point.
CN(Cc1cnc2nc(N)nc(N)c2n1)c1ccc(C(=O)N[C@@H](CCC(=O)O)C(=O)N[C@@H](Cc2cccc(C(C)(C)C)c2)C(=O)O)cc1 [Prodrug 12] : much lower
CN(Cc1cnc2nc(N)nc(N)c2n1)c1ccc(C(=O)N[C@@H](CCC(=O)O)C(=O)N[C@@H](Cc2cccc(C3CCCC3)c2)C(=O)O)cc1 [Prodrug 9] : much lower
CN(Cc1cnc2nc(N)nc(N)c2n1)c1ccc(C(=O)N[C@@H](CCC(=O)O)C(=O)N[C@@H](Cc2cccc(C3CCC3)c2)C(=O)O)cc1 : much lower
CN(Cc1cnc2nc(N)nc(N)c2n1)c1ccc(C(=O)N[C@@H](CCC(=O)O)C(=O)N[C@@H](Cc2ccc(O)c(C3CCCC3)c2)C(=O)O)cc1 [Prodrug 13] : much lower

Now for the compound whose kcat/Km for human CPA1 compared with that of the L-phenylalanine prodrug (in words) we want.
Report measured kcat/Km for human CPA1 compared with that of the L-phenylalanine prodrug (in words); entry is CN(Cc1cnc2nc(N)nc(N)c2n1)c1ccc(C(=O)N[C@@H](CCC(=O)O)C(=O)N[C@@H](Cc2ccccc2C2CCCC2)C(=O)O)cc1 [Prodrug 8]
much lower

###

experiment: Stability and biodistribution of prodrugs in vivo (HPLC of plasma and tissues)
Design: species or system mice (CD-1 nude; BALB/C where indicated)
experimentalSetup: mouse, small intestine, 50 mg/kg, SMALL INTESTINE, 120 min, 50 mg/kg i.p. or i.v., CD-1 nude mice; read-out: stability: percentage of material observed as intact prodrug, small intestine
reportedEndpoint: remaining at 2 h (%)
Respond with the bare value in %.

Use the examples below as a reference point.
CN(Cc1cnc2nc(N)nc(N)c2n1)c1ccc(C(=O)N[C@@H](CCC(=O)O)C(=O)N[C@@H](CC(=O)O)C(=O)O)cc1 [Prodrug 6] : 54
Cc1nc2ccc3ccc(CNc4ccc(C(=O)N[C@@H](CCC(=O)O)C(=O)N[C@@H](Cc5ccccc5C(=O)O)C(=O)O)c(F)c4)cc3c2c(=O)[nH]1 [Prodrug 4] : 98
CN(Cc1cnc2nc(N)nc(N)c2n1)c1ccc(C(=O)N[C@@H](CCC(=O)O)C(=O)N[C@@H](Cc2ccc(O)c(C3CCCC3)c2)C(=O)O)cc1 [Prodrug 13] : 100
CN(Cc1cnc2nc(N)nc(N)c2n1)c1ccc(C(=O)N[C@@H](CCC(=O)O)C(=O)N[C@@H](Cc2cccc(C3CCC3)c2)C(=O)O)cc1 [Prodrug 11] : 67.7
Cc1nc2ccc3ccc(CNc4ccc(C(=O)N[C@@H](CCC(=O)O)C(=O)N[C@@H](Cc5ccccc5I)C(=O)O)c(F)c4)cc3c2c(=O)[nH]1 [Prodrug 5] : 2

Report measured remaining at 2 h; entry is Cc1nc2ccc3ccc(CNc4ccc5c(c4)CN([C@@H](CCC(=O)O)C(=O)N[C@@H](Cc4ccccc4)C(=O)O)C5=O)cc3c2c(=O)[nH]1 [Prodrug 2]
47

Report measured remaining at 2 h; entry is CN(Cc1cnc2nc(N)nc(N)c2n1)c1ccc(C(=O)N[C@@H](CCC(=O)O)C(=O)N[C@@H](Cc2cccc(C(C)(C)C)c2)C(=O)O)cc1 [Prodrug 12]
67

Report measured remaining at 2 h; entry is CN(Cc1cnc2nc(N)nc(N)c2n1)c1ccc(C(=O)N[C@@H](CCC(=O)O)C(=O)N[C@@H](Cc2ccccc2C(=O)O)C(=O)O)cc1 [Prodrug 7]
97

###

experiment: Stability and biodistribution of prodrugs in vivo (HPLC of plasma and tissues)
Set-up: species or system mice (CD-1 nude; BALB/C where indicated)
experimentalSetup: mouse, cecum, 50 mg/kg, CECUM, 30 min, 50 mg/kg i.p. or i.v., CD-1 nude mice; read-out: stability: percentage of material observed as intact prodrug, cecum
reportedEndpoint: remaining at 0.5 h (%)
Respond with the bare value in %.

Use the examples below as a reference point.
Nc1nc(N)c(CCCNc2ccc(C(=O)N[C@@H](CCC(=O)O)C(=O)N[C@@H](Cc3cccc(C4CCCC4)c3)C(=O)O)cc2)c(=O)[nH]1 [Prodrug 14] : 100
CN(Cc1cnc2nc(N)nc(N)c2n1)c1ccc(C(=O)N[C@@H](CCC(=O)O)C(=O)N[C@@H](Cc2ccccc2)C(=O)O)cc1 [Prodrug 10, reference compound] : 65
Cc1nc2ccc3ccc(CNc4ccc(C(=O)N[C@@H](CCC(=O)O)C(=O)N[C@@H](CCC(=O)O)C(=O)O)c(F)c4)cc3c2c(=O)[nH]1 [Prodrug 1] : 96
CN(Cc1cnc2nc(N)nc(N)c2n1)c1ccc(C(=O)N[C@@H](CCC(=O)O)C(=O)N[C@@H](Cc2cccc(C3CCC3)c2)C(=O)O)cc1 [Prodrug 11] : 100
Cc1nc2ccc3ccc(CNc4ccc5c(c4)CN([C@@H](CCC(=O)O)C(=O)N[C@@H](Cc4ccccc4)C(=O)O)C5=O)cc3c2c(=O)[nH]1 [Prodrug 2] : 96

Now for the compound whose remaining at 0.5 h we want.
Report measured remaining at 0.5 h; entry is CN(Cc1cnc2nc(N)nc(N)c2n1)c1ccc(C(=O)N[C@@H](CCC(=O)O)C(=O)N[C@@H](Cc2ccccc2C(=O)O)C(=O)O)cc1 [Prodrug 7]
100

###

experiment: Stability and biodistribution of prodrugs in vivo (HPLC of plasma and tissues)
Design: species or system mice (CD-1 nude; BALB/C where indicated)
experimentalSetup: mouse, plasma, 50 mg/kg, PLASMA, 120 min, 50 mg/kg i.p. or i.v., CD-1 nude mice; read-out: concentration of prodrug in plasma
Entries annotated with measured concentration at 2 h
Respond with the bare value in nM.

Use the examples below as a reference point.
CN(Cc1cnc2nc(N)nc(N)c2n1)c1ccc(C(=O)N[C@@H](CCC(=O)O)C(=O)N[C@@H](Cc2ccc(O)c(C3CCCC3)c2)C(=O)O)cc1 [Prodrug 13] : 600
CN(Cc1cnc2nc(N)nc(N)c2n1)c1ccc(C(=O)N[C@@H](CCC(=O)O)C(=O)N[C@@H](Cc2cccc(C(C)(C)C)c2)C(=O)O)cc1 [Prodrug 12] : 700

Report measured concentration at 2 h; entry is CN(Cc1cnc2nc(N)nc(N)c2n1)c1ccc(C(=O)N[C@@H](CCC(=O)O)C(=O)N[C@@H](Cc2ccccc2C2CCCC2)C(=O)O)cc1 [Prodrug 8]
1100
